- Tested on: Staphylococcus aureus
- Experimental Details: Antibacterial activity against methicillin-resistant Staphylococcus aureus RN8175 after 24 hrs by CLSI broth microdilution method
- Type: functional
- Conditions Used: RN8175, 24 h
Field: label. Allowed values: TRUE (MIC < 20 µg/mL) or FALSE (MIC >= 20 µg/mL).

Past entries and their recorded results:
Lab log: compare recorded MIC with 20 µg/mL; is it strictly lower for COC(=O)c1ccc(-c2csc(N)n2)cc1 ?
FALSE

Lab log: compare recorded MIC with 20 µg/mL; is it strictly lower for O=S(=O)(Nc1nc(-c2ccccc2F)cs1)c1ccccc1 ?
FALSE

Lab log: compare recorded MIC with 20 µg/mL; is it strictly lower for CC(=O)OCC1=C(C(=O)O)N2C(=O)[C@@H](NC(=O)c3cccc(-c4csc(N)n4)c3)C2SC1 (some centres not stated) ?
TRUE

Lab log: compare recorded MIC with 20 µg/mL; is it strictly lower for Nc1nc(-c2cc3ccccc3o2)cs1 ?
FALSE

Lab log: compare recorded MIC with 20 µg/mL; is it strictly lower for Nc1nc2ccc(-c3cccc(OC(F)(F)F)c3)cc2s1 ?
TRUE

Lab log: compare recorded MIC with 20 µg/mL; is it strictly lower for Fc1cccc(Nc2nc(-c3ccc(N4CCCC4)cc3)cs2)c1 ?
FALSE

Lab log: compare recorded MIC with 20 µg/mL; is it strictly lower for Nc1nc(-c2ccc(N3CCCC3)cc2)cs1 ?
FALSE

Lab log: compare recorded MIC with 20 µg/mL; is it strictly lower for COC(=O)c1cccc(-c2csc(N)n2)c1 ?
FALSE

Lab log: compare recorded MIC with 20 µg/mL; is it strictly lower for Nc1nc(-c2cccc(-c3cccc(OC(F)(F)F)c3)c2)cs1 ?
TRUE

Lab log: compare recorded MIC with 20 µg/mL; is it strictly lower for CCOC(=O)CCc1ccc(-c2cccc(-c3csc(N)n3)c2)cc1 ?
FALSE

Further cases:
Lab log: compare recorded MIC with 20 µg/mL; is it strictly lower for Nc1nc(-c2ccc(OC(F)(F)F)cc2)cs1 ?
FALSE

Lab log: compare recorded MIC with 20 µg/mL; is it strictly lower for Nc1nc2cc(-c3cccc(OC(F)(F)F)c3)ccc2s1 ?
TRUE

---

- Test system: Staphylococcus aureus
- Experimental Details: Antibacterial activity against methicillin-resistant Staphylococcus aureus UAMS-1 after 24 hrs by CLSI broth microdilution method
- Assay type: functional
- Conditions Used: UAMS-1, 24 h
The entries below are paired with their reported MIC.

// worked examples, MIC included
Tell me its MIC given CO/N=C(\C(=O)N[C@@H]1C(=O)N2C(C(=O)O)=C(CSc3nc(=O)c(O)nn3C)CS[C@H]12)c1csc(N)n1 [CEFTRIAXONE] as the entry.
8 µg/mL

Tell me its MIC given Fc1cccc(Nc2nc(-c3ccc(N4CCCC4)cc3)cs2)c1 as the entry.
2 µg/mL

Tell me its MIC given CC(=O)OCC1=C(C(=O)O)N2C(=O)[C@@H](NC(=O)c3cccc(-c4csc(N)n4)c3)C2SC1 (stereo partly specified) as the entry.
256 µg/mL

Tell me its MIC given Nc1nc(-c2cc3ccccc3o2)cs1 as the entry.
256 µg/mL

Tell me its MIC given CCOC(=O)c1cccc(-c2ccc3sc(N)nc3c2)c1 as the entry.
> 256 µg/mL

Could you now look at the following molecule, please?
Tell me its MIC given O=S(=O)(Nc1nc2c(s1)CCCC2)c1cccc(C(F)(F)F)c1 as the entry.
> 256 µg/mL

---

- System: Staphylococcus aureus
- Experimental Details: Antibacterial activity against methicillin-resistant Staphylococcus aureus UAMS-1 after 24 hrs by CLSI broth microdilution method
- Type: functional
- Conditions Used: UAMS-1, 24 h
Readout Label: MIC (µg/mL)
Answer in µg/mL, number only, no unit symbol.

Report MIC on Staphylococcus aureus for this entry: Nc1nc(-c2ccc(N3CCOCC3)cc2)cs1
128

Report MIC on Staphylococcus aureus for this entry: Nc1nc(-c2ccc(N3CCCC3)cc2)cs1
256

Report MIC on Staphylococcus aureus for this entry: Nc1nc(-c2ccc3ccccc3c2)cs1
256

Report MIC on Staphylococcus aureus for this entry: O=S(=O)(Nc1nc(C23CC4CC(CC(C4)C2)C3)cs1)c1cccc(C(F)(F)F)c1
128

Report MIC on Staphylococcus aureus for this entry: Fc1cccc(Nc2nc(-c3ccc(N4CCOCC4)cc3)cs2)c1
256

Further cases:
Report MIC on Staphylococcus aureus for this entry: Fc1cccc(Nc2nc(-c3cccc(Br)c3)cs2)c1
2

---

- Test system: Staphylococcus aureus
- Experimental Details: Antibacterial activity against methicillin-resistant Staphylococcus aureus RN8175 after 24 hrs by CLSI broth microdilution method
- Type: functional
- Conditions Used: RN8175, 24 h
The entries below are paired with their reported log10(MIC).
Transform log10 | Measure MIC | Unit µg/mL

Tell me its log10(MIC) given Nc1nc(-c2ccc(N3CCOCC3)cc2)cs1 as the entry.
2.41

Tell me its log10(MIC) given O=S(=O)(Nc1nc(-c2ccccc2Br)cs1)c1ccccc1 as the entry.
1.51

Tell me its log10(MIC) given O=S(=O)(Nc1nc(-c2ccc(Br)cc2)cs1)c1ccccc1 as the entry.
1.20

Tell me its log10(MIC) given Fc1cccc(Nc2nc(-c3cccc(Br)c3)cs2)c1 as the entry.
0.60

Could you now look at the following molecule, please?
Tell me its log10(MIC) given Nc1nc(-c2ccc(-c3cccc(OC(F)(F)F)c3)cc2)cs1 as the entry.
0.30

---

- System: Staphylococcus aureus
- Experimental Details: Antibacterial activity against methicillin-resistant Staphylococcus aureus RN8175 after 24 hrs by CLSI broth microdilution method
- Assay type: functional
- Conditions Used: RN8175, 24 h
Readout Label: MIC (µg/mL)
Answer in µg/mL, number only, no unit symbol.

// worked examples, MIC included
Tell me its MIC given CCOC(=O)c1cccc(-c2ccccc2-c2csc(N)n2)c1 as the entry.
32

Tell me its MIC given CO/N=C(\C(=O)N[C@@H]1C(=O)N2C(C(=O)O)=C(CSc3nc(=O)c(O)nn3C)CS[C@H]12)c1csc(N)n1 as the entry.
16

Tell me its MIC given Nc1nc(-c2ccccc2-c2cccc(OC(F)(F)F)c2)cs1 as the entry.
16

Further cases:
Tell me its MIC given CCOC(=O)COc1ccc(-c2cccc(-c3csc(N)n3)c2)cc1 as the entry.
256

---

- Test system: Staphylococcus aureus
- Experimental Details: Antibacterial activity against methicillin-resistant Staphylococcus aureus RN8175 after 24 hrs by CLSI broth microdilution method
- Assay type: functional
- Conditions Used: RN8175, 24 h
The entries below are paired with their reported MIC.

// worked examples, MIC included
Report MIC on Staphylococcus aureus for this entry: CCOC(=O)c1cccc(-c2cccc(-c3csc(N)n3)c2)c1
> 256 µg/mL

Report MIC on Staphylococcus aureus for this entry: Nc1nc(-c2ccc3ccccc3c2)cs1
> 256 µg/mL

Report MIC on Staphylococcus aureus for this entry: COc1ccc(-c2csc(N)n2)cc1
> 256 µg/mL

Report MIC on Staphylococcus aureus for this entry: Nc1nc(-c2cccc(-c3ccc(C(=O)O)cc3)c2)cs1
> 256 µg/mL

Report MIC on Staphylococcus aureus for this entry: COC(=O)c1ccccc1-c1cccc(-c2csc(N)n2)c1
> 256 µg/mL

Report MIC on Staphylococcus aureus for this entry: Nc1nc(-c2cccc(-c3cccc(C(=O)O)c3)c2)cs1
> 256 µg/mL

Further cases:
Report MIC on Staphylococcus aureus for this entry: CCOC(=O)COc1cccc(-c2cccc(-c3csc(N)n3)c2)c1
> 256 µg/mL
